Entries and their measured normalized growth follow.
- TEST_SUMMARY: chemical genetic growth profiling, strain panel (AID 1159580);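 also: tested at 20 µM; growth read once vehicle control cultures reached saturation at 30 °C; 1 = growth at the plate median or of vehicle wells; lower values mean less growth of the strain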
- ASSAY_CONDITIONS: S. cerevisiae deletion strains, growth OD, locus YDL132W, strain cdc53, active compounds read low
The whole screen tested about 5,500 compounds, of which about 2,000 (36%) were called active. About 18% were inconclusive and are not listed. The list shows a part of the results.
OBSERVATION_TYPE: normalized growth

compound=O=c1c(-c2ccccc2)c(O)c2cccc3c4ccccc4n1c23 data_value=0.167
compound=O=C(NNC(=S)Nc1ccc(Cl)cc1)c1ncc(C(F)(F)F)cc1Cl data_value=0.966
compound=O=C(c1cc2c(s1)-c1ccccc1CC2)N1CCN(Cc2ccccc2)CC1 data_value=0.993
compound=O=c1c(-c2ccccc2)c(O)c2cccc3c4c(n1c23)CCCC4 data_value=0.939
compound=CC(=O)c1ccccc1C(=O)c1ccc(C(C)(C)C)cc1 data_value=0.958
compound="OC(CSc1ccccc1)CN1CCN(c2nc(-c3ccccc3)ns2)CC1 (stereo not drawn)" data_value=0.996
compound=CSc1nnc(COc2ccc(C)c3c2CCC3)n1-c1ccccc1 data_value=0.98
compound=O=C(Nc1cccnc1)c1cc2c(s1)-c1ccccc1CC2 data_value=0.903
compound=C/C(=N/NC(=O)c1ccc(C(C)(C)C)cc1)c1ccccc1O data_value=0.98
compound=CS/C(Nc1cccc(C(F)(F)F)c1)=C(/C#N)S(=O)(=O)c1ccc(Cl)cc1 data_value=0.953
compound=Cn1nc(-c2ccccc2)c(O)c(N=Nc2ccccc2)c1=O data_value=0.968
compound=Clc1ccc(N/N=C\c2sccc2Oc2ccccc2)cc1 data_value=0.964
compound=Cc1ccc(OCc2n[nH]c(=S)n2Cc2ccccc2)c2c1CCC2 data_value=0.99

Every entry's value here was drawn from PubChem BioAssay AID1159580.
